Values from ChEMBL document CHEMBL6182936

Test: physchem
Settings: NCl, pH 1.2
Measured metric: solubility (µg/mL)
Number in µg/mL, nothing else.

Lookup: Look at this compound and give its reported solubility. `CC(=O)c1[nH]c2ccc(F)cc2c1-c1cn(CC2CCN(CCNS(=O)(=O)c3ccc(-c4c(O)cccc4F)cc3)CC2)nn1`
Found: 28.2

###

System: 786-0
Experiment: cells
Conditions: Homo sapiens
Measured metric: IC50

Lookup: Look at this molecule and give its reported IC50. `CC(C)COC(=O)c1[nH]c2ccc(F)cc2c1-c1cn(CC2CCN(CCNS(=O)(=O)c3ccc(CC(C)C)cc3)CC2)nn1`
Found: 14.8 µM

###

Assay: physchem
Conditions: PBS buffer, pH 7.4
Measured metric: solubility (µg/mL)
Number in µg/mL, nothing else.

Lookup: Look at this molecule and give its reported solubility. `CC(=O)c1[nH]c2ccc(F)cc2c1-c1cn(CC2CCN(CCNS(=O)(=O)c3ccc(-c4c(O)cccc4F)cc3)CC2)nn1`
Found: 1.7
